The origin of these recorded values is patent US9688764B2.

# System: MCF7/hPRLR (MCF7/PRLR) cells
# METHOD SUMMARY: Cell viability (cell kill) assay, nuclear counts
# Type: cell-based, human
# STATED CONDITIONS: Table 12, 3 days
PROPERTY: pIC50
The quantity pIC50 is defined as the negative base-10 logarithm of the molar concentration.

[
  {
    "MOLECULE": "H1H6960N-DM1 (conjugate) VH: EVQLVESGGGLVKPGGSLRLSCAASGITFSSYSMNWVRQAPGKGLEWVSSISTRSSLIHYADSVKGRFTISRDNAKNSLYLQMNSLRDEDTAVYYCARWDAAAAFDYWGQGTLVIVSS VL: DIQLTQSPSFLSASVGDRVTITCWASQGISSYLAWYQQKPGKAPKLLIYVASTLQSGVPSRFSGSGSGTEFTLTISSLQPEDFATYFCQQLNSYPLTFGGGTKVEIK",
    "ENDPOINT RESULT": 9.54
  }
]

Prompt: Look up pIC50: H1H6793P-DM1 (conjugate) VH: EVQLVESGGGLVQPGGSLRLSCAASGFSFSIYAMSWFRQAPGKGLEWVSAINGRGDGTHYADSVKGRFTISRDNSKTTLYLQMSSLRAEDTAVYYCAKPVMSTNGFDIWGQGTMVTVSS VL: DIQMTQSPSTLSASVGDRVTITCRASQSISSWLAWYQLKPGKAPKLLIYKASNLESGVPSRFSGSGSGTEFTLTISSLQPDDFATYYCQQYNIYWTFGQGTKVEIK
Completion: 9.27

Prompt: Look up pIC50: H1H6803P-DM1 (conjugate) VH: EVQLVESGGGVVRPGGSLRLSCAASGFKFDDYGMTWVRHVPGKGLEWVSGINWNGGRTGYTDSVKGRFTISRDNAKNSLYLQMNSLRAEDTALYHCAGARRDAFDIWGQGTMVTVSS VL: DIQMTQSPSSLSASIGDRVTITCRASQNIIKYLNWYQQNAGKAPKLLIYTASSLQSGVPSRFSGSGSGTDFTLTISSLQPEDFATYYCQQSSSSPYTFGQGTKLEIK
Completion: 9.36
